Tested on: HeLa
test protocol: Cytotoxicity against human HeLa cells
Type: functional, cell-based
pIC50: −log10 of the molar value.
property measured: pIC50

Please fill in: pIC50 reported for COc1ccc(CN2C3CC2CN(c2ccc(-c4cc(N5CCC(N6CCN(CCCC#Cc7cccc8c7CN(C7CCC(=O)NC7=O)C8=O)CC6)CC5)cn5ncc(C#N)c45)cn2)C3)cn1 (stereo unspecified) = < 5.30

---

System: BaF3
test protocol: Antiproliferative activity against mouse BaF3 cells stably expressing KIF5B-RET incubated for 72 hrs by CCK8 assay
Type: functional, cell-based
test conditions: BaF3, 72 h
pIC50: −log10 of the molar value.
Give 1 (yes) when the value for pIC50 is at least 8. Give 0 (no) when it is less.

A selection of reference data follows.
COc1ccc(CN2C3CC2CN(c2ccc(-c4cc(N5CCC(N6CCN(C(=O)CCCCCCCNc7ccc8c(c7)C(=O)N(C7CCC(=O)NC7=O)C8=O)CC6)CC5)cn5ncc(C#N)c45)cn2)C3)cn1 (stereo not given)    1 (yes)
COc1ccc(CN2C3CC2CN(c2ccc(-c4cc(N5CCN(C(=O)CCCCCCC(=O)N[C@H](C(=O)N6C[C@H](O)C[C@H]6C(=O)N[C@@H](C)c6ccc(-c7scnc7C)cc6)C(C)(C)C)CC5)cn5ncc(C#N)c45)cn2)C3)cn1    0 (no)
COc1ccc(CN2C3CC2CN(c2ccc(-c4cc(N5CCN(CCCCCCC(=O)N[C@H](C(=O)N6C[C@H](O)C[C@H]6C(=O)N[C@@H](C)c6ccc(-c7scnc7C)cc6)C(C)(C)C)CC5)cn5ncc(C#N)c45)cn2)C3)cn1    0 (no)

Task item: Determine whether measured pIC50 meets or exceeds 8 for COc1ccc(CN2C3CC2CN(c2ccc(-c4cc(N5CCC(N6CCN(C(=O)CNc7ccc8c(c7)C(=O)N(C7CCC(=O)NC7=O)C8=O)CC6)CC5)cn5ncc(C#N)c45)cn2)C3)cn1 (stereo not given)
Reply: 1 (yes)

Task item: Given the entry "COc1ccc(CN2C3CC2CN(c2ccc(-c4cc(N5CCN(CCCCC(=O)N[C@H](C(=O)N6C[C@H](O)C[C@H]6C(=O)N[C@@H](C)c6ccc(-c7scnc7C)cc6)C(C)(C)C)CC5)cn5ncc(C#N)c45)cn2)C3)cn1" , answer whether its pIC50 meets or surpasses 8.
Reply: 0 (no)

Task item: Quick check, pIC50 >= 8? COc1ccc(CN2C3CC2CN(c2ccc(-c4cc(N5CCN(C(=O)CCCCCCCNc6cccc7c6C(=O)N(C6CCC(=O)NC6=O)C7=O)CC5)cn5ncc(C#N)c45)cn2)C3)cn1 (stereo not given)
Reply: 1 (yes)

---

System: BaF3
test protocol: Antiproliferative activity against mouse BaF3 cells stably expressing KIF5B-RET G810C mutant incubated for 72 hrs by CCK8 assay
Type: functional, cell-based
test conditions: BaF3, 72 h
property measured: IC50 (nM)
Numbers only, in nM.

Below is a list of compounds. For each, state its recorded IC50.
1. COc1ccc(CN2C3CC2CN(c2ccc(-c4cc(N5CCC(N6CCN(C(=O)CNc7cccc8c7C(=O)N(C7CCC(=O)NC7=O)C8=O)CC6)CC5)cn5ncc(C#N)c45)cn2)C3)cn1 (stereo unspecified)
2. COc1ccc(CN2C3CC2CN(c2ccc(-c4cc(N5CCN(CCC(=O)N[C@H](C(=O)N6C[C@H](O)C[C@H]6C(=O)N[C@@H](C)c6ccc(-c7scnc7C)cc6)C(C)(C)C)CC5)cn5ncc(C#N)c45)cn2)C3)cn1
3. COc1ccc(CN2C3CC2CN(c2ccc(-c4cc(N5CCC(N6CCN(CCCC#Cc7ccc8c(c7)C(=O)N(C7CCC(=O)NC7=O)C8=O)CC6)CC5)cn5ncc(C#N)c45)cn2)C3)cn1 (stereo unspecified)

Reply:
198
254
89.2

Give me IC50 for each of these compounds, listed below.
1. COc1ccc(CN2C3CC2CN(c2ccc(-c4cc(N5CCN(C(=O)CNc6cccc7c6C(=O)N(C6CCC(=O)NC6=O)C7=O)CC5)cn5ncc(C#N)c45)cn2)C3)cn1 (stereo unspecified)
2. COc1ccc(CN2C3CC2CN(c2ccc(-c4cc(N5CCC(N6CCN(C(=O)CCCCCNc7cccc8c7C(=O)N(C7CCC(=O)NC7=O)C8=O)CC6)CC5)cn5ncc(C#N)c45)cn2)C3)cn1 (stereo unspecified)
3. COc1ccc(CN2C3CC2CN(c2ccc(-c4cc(N5CCN(C6CN(c7ccc8c(c7)C(=O)N(C7CCC(=O)NC7=O)C8=O)C6)CC5)cn5ncc(C#N)c45)cn2)C3)cn1 (stereo unspecified)
4. COc1ccc(CN2C3CC2CN(c2ccc(-c4cc(N5CCN(C(=O)CCCNc6cccc7c6C(=O)N(C6CCC(=O)NC6=O)C7=O)CC5)cn5ncc(C#N)c45)cn2)C3)cn1 (stereo unspecified)

Reply:
1. 1380
2. 50.4
3. 322
4. 1020

Please look at the items below and tell me IC50 for each one, in order.
1. COc1ccc(CN2C3CC2CN(c2ccc(-c4cc(N5CCN(CC6CN(c7ccc8c(c7)C(=O)N(C7CCC(=O)NC7=O)C8=O)C6)CC5)cn5ncc(C#N)c45)cn2)C3)cn1 (stereo unspecified)
2. COc1ccc(CN2C3CC2CN(c2ccc(-c4cc(N5CCN(C(=O)CCCCCCCNc6cccc7c6C(=O)N(C6CCC(=O)NC6=O)C7=O)CC5)cn5ncc(C#N)c45)cn2)C3)cn1 (stereo unspecified)
3. COc1ccc(CN2C3CC2CN(c2ccc(-c4cc(N5CCC(N6CCN(CCCCCC#Cc7cccc8c7CN(C7CCC(=O)NC7=O)C8=O)CC6)CC5)cn5ncc(C#N)c45)cn2)C3)cn1 (stereo unspecified)
4. COc1ccc(CN2C3CC2CN(c2ccc(-c4cc(N5CCN(C(=O)CCCNc6ccc7c(c6)C(=O)N(C6CCC(=O)NC6=O)C7=O)CC5)cn5ncc(C#N)c45)cn2)C3)cn1 (stereo unspecified)

Reply:
145
126
61.8
1410

---

Kindly state pIC50 for each of the entries shown.
Tested on: BaF3
test protocol: Antiproliferative activity against mouse BaF3 cells stably expressing CCDC6-RET V804M mutant incubated for 72 hrs by CCK8 assay
Format: functional, cell-based
test conditions: BaF3, 72 h
Answers are plain numbers, as −log10 of the molar value.

Kindly give each listed record's pIC50.
1. COc1ccc(CN2C3CC2CN(c2ccc(-c4cc(N5CCC(N6CCN(CCCC#Cc7cccc8c7CN(C7CCC(=O)NC7=O)C8=O)CC6)CC5)cn5ncc(C#N)c45)cn2)C3)cn1 (configuration not stated)
2. COc1ccc(CN2C3CC2CN(c2ccc(-c4cc(OCC(C)(C)O)cn5ncc(C#N)c45)cn2)C3)cn1

Reply:
8.35
7.91

---

System: BaF3
test protocol: PROTAC activity at CRBN/KIF5B-RET (unknown origin) expressed in mouse BaF3 cells assessed as induction of RET degradation at 10 nM incubated for 24 hrs by immunoblot analysis relative to control
Format: cell-based
Kindly state Activity for each of the entries shown.
One number for each entry, in %.

Illustrative cases are given below, each with its answer.
COc1ccc(CN2C3CC2CN(c2ccc(-c4cc(N5CCN(C(=O)CNc6ccc7c(c6)C(=O)N(C6CCC(=O)NC6=O)C7=O)CC5)cn5ncc(C#N)c45)cn2)C3)cn1 (stereo not drawn)    40
COc1ccc(CN2C3CC2CN(c2ccc(-c4cc(N5CCC(N6CCN(CCCC#Cc7cccc8c7CN(C7CCC(=O)NC7=O)C8=O)CC6)CC5)cn5ncc(C#N)c45)cn2)C3)cn1 (stereo not drawn)    65

Response field Activity (BaF3) for item COc1ccc(CN2C3CC2CN(c2ccc(-c4cc(N5CCC(N6CCN(C(=O)CCCCCCCNc7cccc8c7C(=O)N(C7CCC(=O)NC7=O)C8=O)CC6)CC5)cn5ncc(C#N)c45)cn2)C3)cn1 (stereo not drawn) : 50

---

Tested on: BaF3
test protocol: Antiproliferative activity against mouse BaF3 cells stably expressing KIF5B-RET incubated for 72 hrs by CCK8 assay
Assay type: functional, cell-based
test conditions: BaF3, 72 h
property measured: IC50 (nM)
Answers are plain numbers, in nM.

COc1ccc(CN2C3CC2CN(c2ccc(-c4cc(OCC(C)(C)O)cn5ncc(C#N)c45)cn2)C3)cn1 [SELPERCATINIB]    7.7
COc1ccc(CN2C3CC2CN(c2ccc(-c4cc(N5CCC(N6CCN(C(=O)CCCCCCCNc7cccc8c7C(=O)N(C7CCC(=O)NC7=O)C8=O)CC6)CC5)cn5ncc(C#N)c45)cn2)C3)cn1 (stereo not given)    5.9
COc1ccc(CN2C3CC2CN(c2ccc(-c4cc(N5CCN(CCCCCCCCC(=O)N[C@H](C(=O)N6C[C@H](O)C[C@H]6C(=O)N[C@@H](C)c6ccc(-c7scnc7C)cc6)C(C)(C)C)CC5)cn5ncc(C#N)c45)cn2)C3)cn1    14.2
COc1ccc(CN2C3CC2CN(c2ccc(-c4cc(N5CCN(C(=O)CCCCCCCCC(=O)N[C@H](C(=O)N6C[C@H](O)C[C@H]6C(=O)N[C@@H](C)c6ccc(-c7scnc7C)cc6)C(C)(C)C)CC5)cn5ncc(C#N)c45)cn2)C3)cn1    12.3

// sample COc1ccc(CN2C3CC2CN(c2ccc(-c4cc(N5CCN(C(=O)CCCNc6ccc7c(c6)C(=O)N(C6CCC(=O)NC6=O)C7=O)CC5)cn5ncc(C#N)c45)cn2)C3)cn1 (stereo not given) , its IC50 was 13.3
